Biological target: T1, human CD19 (on Raji cells, CD19+ homo sapiens Burkitt's lymphoma) (human, UniProt P15391 20-556)
T1 construct: whole, on cells; also called B-lymphocyte antigen CD19; B4
T1 sequence (looked up): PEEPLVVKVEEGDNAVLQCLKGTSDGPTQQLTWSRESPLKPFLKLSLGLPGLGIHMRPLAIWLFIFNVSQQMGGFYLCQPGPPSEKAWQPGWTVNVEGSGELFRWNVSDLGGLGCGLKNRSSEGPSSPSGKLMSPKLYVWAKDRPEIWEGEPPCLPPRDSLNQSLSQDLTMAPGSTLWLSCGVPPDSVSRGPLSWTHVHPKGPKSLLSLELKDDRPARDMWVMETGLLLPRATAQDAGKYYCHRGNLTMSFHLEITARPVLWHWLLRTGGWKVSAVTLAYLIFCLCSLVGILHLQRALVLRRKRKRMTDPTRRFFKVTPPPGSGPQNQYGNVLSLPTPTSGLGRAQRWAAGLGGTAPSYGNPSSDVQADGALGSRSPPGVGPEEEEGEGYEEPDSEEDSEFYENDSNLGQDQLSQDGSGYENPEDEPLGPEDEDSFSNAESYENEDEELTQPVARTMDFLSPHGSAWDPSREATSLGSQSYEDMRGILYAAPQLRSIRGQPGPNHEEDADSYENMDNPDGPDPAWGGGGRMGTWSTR
Test: flow cytometry titration on Raji cells, anti-His FITC; scFv at log(nM) 2.522879
# key: entry, value: geometric mean (FACS titration)
Form field (numeric): enter value without unit.

The cases that follow already have their geometric mean (FACS titration) on record.
[Q] Value lookup for geometric mean (FACS titration); key = SS-scFv (scFv, leader left out here) scFv: DIQMTQSPSFLSASVGDRVTITCRASQDISKYLNWYQQKPDQAPKLLIKHTSRLHSGVPSRFSGSGSGTDFTFTISSLQPEDIATYYCQQGNTLPYTFGQGTKLEIKGSTSGSGKPGSGEGSTKGEVQLVESGGGLVQPGRSLRLSCTASGVSLPDYGVSWVRQPPGKGLEWIGVIWGSETTYYNSALKSRFTISRDNSKNTLYLQMNSLRAEDTAVYYCAKHYYYGGSYAMDYWGQGTLVTVSSHHHHHH
[A] 60.4

[Q] Value lookup for geometric mean (FACS titration); key = NS-scFv (scFv, leader left out here) scFv: DIQMTQSPSSLSASVGDRVTITCRASQDISKYLNWYQQKPGKAVKLLIYHTSRLHSGVPSRFSGSGSGTDYTLTISSLQPEDIATYFCQQGNTLPYTFGGGTKLEIKGSTSGSGKPGSGEGSTKGQVQLQESGPGLVKPSETLSVTCTVSGVSLPDYGVSWIRQPPGKGLEWLGVIWGSETTYYNSALKSRLTISKDTSKNQVFLKMSSLTAADTAIYYCAKHYYYGGSYAMDYWGQGTLVTVSSHHHHHH
[A] 61.6

[Q] Value lookup for geometric mean (FACS titration); key = JS-scFv (scFv, leader left out here) scFv: DIQMTQSPSSLSASVGDRVTITCRASQDISKYLNWYQQKPDQAPKLLIKHTSRLHSGVPSRFSGSGSGTDYTLTISSLQPEDFATYYCQQGNTLPYTFGQGTKLEIKGSTSGSGKPGSGEGSTKGEVQLVESGGGLVQPGRSLRLSCTASGVSLPDYGVSWIRQPPGKGLEWIGVIWGSETTYYNSALKSRFTISRDNSKNTLYLQMNSLRAEDTAVYYCAKHYYYGGSYAMDYWGQGTLVTVSSHHHHHH
[A] 58.9

--- query ---
[Q] Value lookup for geometric mean (FACS titration); key = AS-scFv (scFv, leader left out here) scFv: DIQMTQSPSTLSASVGDRVTITCRASQDISKYLNWYQQKPDQAPKLLIKHTSRLHSGVPSRFSGSGSGTDFTFTISSLQPEDIATYYCQQGNTLPYTFGQGTKLEIKGSTSGSGKPGSGEGSTKGQVQLQESGPGLVKPSGTLSLTCAVSGVSLPDYGVSWIRQPPGKGLEWIGVIWGSETTYYNSALKSRVTISRDNSKNTLYLQMNSLRAEDTAVYYCAKHYYYGGSYAMDYWGQGTLVTVSSHHHHHH
[A] 63.9
